All values here come from patent US11944605B2.

test details: Solubility in 100 mM phosphate buffer (pH 7.4)
Assay type: physicochemical
assay conditions: pH 7.4, aqueous buffer
measured parameter: solubility

| molecule | measured parameter | value |
| --- | --- | --- |
| CO[C@@H]1C[C@H](C[C@@H](C)[C@@H]2CC(=O)[C@H](C)/C=C(\C)[C@@H](O)[C@@H](OC)C(=O)[C@H](C)C[C@H](C)/C=C/C=C/C=C(\C)[C@@H](OCCOCCO)C[C@@H]3CC[C@@H](C)[C@@](O)(O3)C(=O)C(=O)N3CCCC[C@H]3C(=O)O2)CC[C@H]1O [I-20] | solubility | 30 to 60 µM |
| CO[C@@H]1C[C@H](C[C@@H](C)[C@@H]2CC(=O)[C@H](C)/C=C(\C)[C@@H](O)[C@@H](OC)C(=O)[C@H](C)C[C@H](C)/C=C/C=C/C=C(\C)C(OCCOCCOCCO)C[C@@H]3CC[C@@H](C)[C@@](O)(O3)C(=O)C(=O)N3CCCC[C@H]3C(=O)O2)CC[C@H]1OCCO (stereo partly drawn) [I-32] | solubility | > 60 µM |
| CO[C@@H]1C[C@H](C[C@@H](C)[C@@H]2CC(=O)[C@H](C)/C=C(\C)[C@@H](O)[C@@H](OC)C(=O)[C@H](C)C[C@H](C)/C=C/C=C/C=C(\C)[C@@H](OCCOCCOCCO)C[C@@H]3CC[C@@H](C)[C@@](O)(O3)C(=O)C(=O)N3CCCC[C@H]3C(=O)O2)CC[C@H]1O [Compound I-29] | solubility | 30 to 60 µM |

###

Entries and their IC50 values follow.
Tested on: IFN-γ production
test details: IFN-γ production in allogenic mixed lymphocyte reaction
Type: cell-based
assay conditions: read-out: IFN-γ Inhibition IC50s
measured parameter: IC50 (nM)

| compound | measured parameter | operator | value |
| --- | --- | --- | --- |
| CO[C@H]1C[C@@H]2CC[C@@H](C)[C@@](O)(O2)C(=O)C(=O)N2CCCC[C@H]2C(=O)O[C@H]([C@H](C)C[C@@H]2CC[C@@H](OCCO)[C@H](OC)C2)CC(=O)[C@H](C)/C=C(\C)[C@@H](O)[C@@H](OC)C(=O)[C@H](C)C[C@H](C)/C=C/C=C/C=C/1C [Everolimus, everolimus, reference compound] | IC50 | = | 15.2 |
| CO[C@@H]1C[C@H](C[C@@H](C)[C@@H]2CC(=O)[C@H](C)/C=C(\C)[C@@H](O)[C@@H](OC)C(=O)[C@H](C)C[C@H](C)/C=C/C=C/C=C(\C)[C@@H](OCCOCCO)C[C@@H]3CC[C@@H](C)[C@@](O)(O3)C(=O)C(=O)N3CCCC[C@H]3C(=O)O2)CC[C@H]1OCCO [I-117] | IC50 | > | 3000 |
| CO[C@@H]1C[C@H](C[C@@H](C)[C@@H]2CC(=O)[C@H](C)/C=C(\C)[C@@H](O)[C@@H](OC)C(=O)[C@H](C)C[C@H](C)/C=C/C=C/C=C(\C)[C@@H](OCCOCCOCCO)C[C@@H]3CC[C@@H](C)[C@@](O)(O3)C(=O)C(=O)N3CCCC[C@H]3C(=O)O2)CC[C@H]1O [I-29] | IC50 | > | 3000 |
| CO[C@H]1C[C@@H]2CC[C@@H](C)[C@@](O)(O2)C(=O)C(=O)N2CCCC[C@H]2C(=O)O[C@H]([C@H](C)C[C@@H]2CC[C@@H](O)[C@H](OC)C2)CC(=O)[C@H](C)/C=C(\C)[C@@H](O)[C@@H](OC)C(=O)[C@H](C)C[C@H](C)/C=C/C=C/C=C/1C [Rapamycin, rapamycin] | IC50 | = | 2.4 |

###

test details: Pharmacokinetic properties in C57Bl/6 mice
Assay type: in vivo
assay conditions: mouse, plasma, 10 mg/kg PO
Protocol: Pharmacokinetic Properties The pharmacokinetic properties of compounds of the present invention were evaluated in C57Bl/6 mice and compared with rapamycin. Animals were fasted overnight prior to administration of I-29 or rapamycin (1 mg/kg IV, 10 mg/kg PO, or 2 mg/kg IP). Animals were bled at time intervals for up to 48 hours following administration of compounds. Whole blood from each mouse was indivisually collected in polypropylene tubes and immediately centrifuged. […]

| given smiles | unit info | Cmax |
| --- | --- | --- |
| CO[C@@H]1C[C@H](C[C@@H](C)[C@@H]2CC(=O)[C@H](C)/C=C(\C)[C@@H](O)[C@@H](OC)C(=O)[C@H](C)C[C@H](C)/C=C/C=C/C=C(\C)[C@@H](OCCOCCOCCO)C[C@@H]3CC[C@@H](C)[C@@](O)(O3)C(=O)C(=O)N3CCCC[C@H]3C(=O)O2)CC[C@H]1O | ng/mL | 3290 |
| CO[C@H]1C[C@@H]2CC[C@@H](C)[C@@](O)(O2)C(=O)C(=O)N2CCCC[C@H]2C(=O)O[C@H]([C@H](C)C[C@@H]2CC[C@@H](O)[C@H](OC)C2)CC(=O)[C@H](C)/C=C(\C)[C@@H](O)[C@@H](OC)C(=O)[C@H](C)C[C@H](C)/C=C/C=C/C=C/1C | ng/mL | 52.8 |

###

Entries and their AUC(0-t) values follow.
test details: Pharmacokinetic properties in C57Bl/6 mice
Assay type: in vivo
assay conditions: mouse, plasma, 1 mg/kg IV

| compound | AUC(0-t) / µg·h/mL |
| --- | --- |
| CO[C@H]1C[C@@H]2CC[C@@H](C)[C@@](O)(O2)C(=O)C(=O)N2CCCC[C@H]2C(=O)O[C@H]([C@H](C)C[C@@H]2CC[C@@H](O)[C@H](OC)C2)CC(=O)[C@H](C)/C=C(\C)[C@@H](O)[C@@H](OC)C(=O)[C@H](C)C[C@H](C)/C=C/C=C/C=C/1C [Rapamycin, rapamycin] | 3.62 |
| CO[C@@H]1C[C@H](C[C@@H](C)[C@@H]2CC(=O)[C@H](C)/C=C(\C)[C@@H](O)[C@@H](OC)C(=O)[C@H](C)C[C@H](C)/C=C/C=C/C=C(\C)[C@@H](OCCOCCOCCO)C[C@@H]3CC[C@@H](C)[C@@](O)(O3)C(=O)C(=O)N3CCCC[C@H]3C(=O)O2)CC[C@H]1O [I-29] | 17.6 |

###

test details: Pharmacokinetic properties in C57Bl/6 mice
Type: in vivo
assay conditions: mouse, plasma, 10 mg/kg PO

| compound | AUC(0-inf) [µg·h/mL] |
| --- | --- |
| CO[C@@H]1C[C@H](C[C@@H](C)[C@@H]2CC(=O)[C@H](C)/C=C(\C)[C@@H](O)[C@@H](OC)C(=O)[C@H](C)C[C@H](C)/C=C/C=C/C=C(\C)[C@@H](OCCOCCOCCO)C[C@@H]3CC[C@@H](C)[C@@](O)(O3)C(=O)C(=O)N3CCCC[C@H]3C(=O)O2)CC[C@H]1O [I-29] | 31.7 |

###

test details: Pharmacokinetic properties in C57Bl/6 mice
Type: in vivo
assay conditions: mouse, plasma, 2 mg/kg IP
Entries and their Tmax values follow.
measured parameter: Tmax (min)

| given smiles | measured parameter | unit info | value |
| --- | --- | --- | --- |
| CO[C@H]1C[C@@H]2CC[C@@H](C)[C@@](O)(O2)C(=O)C(=O)N2CCCC[C@H]2C(=O)O[C@H]([C@H](C)C[C@@H]2CC[C@@H](O)[C@H](OC)C2)CC(=O)[C@H](C)/C=C(\C)[C@@H](O)[C@@H](OC)C(=O)[C@H](C)C[C@H](C)/C=C/C=C/C=C/1C | Tmax | min | 15 |
| CO[C@@H]1C[C@H](C[C@@H](C)[C@@H]2CC(=O)[C@H](C)/C=C(\C)[C@@H](O)[C@@H](OC)C(=O)[C@H](C)C[C@H](C)/C=C/C=C/C=C(\C)[C@@H](OCCOCCOCCO)C[C@@H]3CC[C@@H](C)[C@@](O)(O3)C(=O)C(=O)N3CCCC[C@H]3C(=O)O2)CC[C@H]1O | Tmax | min | 15 |

###

test details: Pharmacokinetic properties in C57Bl/6 mice
Format: in vivo
assay conditions: mouse, plasma, 10 mg/kg PO

| compound | AUC(0-t) [ng·h/mL] |
| --- | --- |
| CO[C@H]1C[C@@H]2CC[C@@H](C)[C@@](O)(O2)C(=O)C(=O)N2CCCC[C@H]2C(=O)O[C@H]([C@H](C)C[C@@H]2CC[C@@H](O)[C@H](OC)C2)CC(=O)[C@H](C)/C=C(\C)[C@@H](O)[C@@H](OC)C(=O)[C@H](C)C[C@H](C)/C=C/C=C/C=C/1C [Rapamycin, rapamycin] | 292 |
| CO[C@@H]1C[C@H](C[C@@H](C)[C@@H]2CC(=O)[C@H](C)/C=C(\C)[C@@H](O)[C@@H](OC)C(=O)[C@H](C)C[C@H](C)/C=C/C=C/C=C(\C)[C@@H](OCCOCCOCCO)C[C@@H]3CC[C@@H](C)[C@@](O)(O3)C(=O)C(=O)N3CCCC[C@H]3C(=O)O2)CC[C@H]1O [I-29] | 31200 |
